pIC50: −log10 of the molar value.
Reported pIC50 values, Glutamate carboxypeptidase 2 (Rattus norvegicus).

{"compound": "CN(Cc1cnc2nc(N)nc(N)c2n1)c1ccc(C(=O)N[C@@H](CCP(=O)(O)O[C@@H](CCC(=O)O)C(=O)O)C(=O)O)cc1", "pIC50": 8.40}
{"compound": "CNc1ccc(C(=O)N[C@@H](CCP(=O)(O)O[C@@H](CCC(=O)O)C(=O)O)C(=O)O)cc1", "pIC50": 8.40}
{"compound": "Nc1ccc(C(=O)N[C@@H](CCP(=O)(O)O[C@@H](CCC(=O)O)C(=O)O)C(=O)O)cc1", "pIC50": 8.52}
{"compound": "CN(Cc1cnc2nc(N)nc(N)c2n1)c1ccc(C(=O)NC(CCP(=O)(O)OC(CCC(=O)O)C(=O)O)C(=O)O)cc1 (centres undefined)", "pIC50": 8.30}

* * *

// reported pIC50 per item
- method.summary: Compound was evaluated for its ability to inhibit Gamma glutamylhydroxylase
pIC50: −log10 of the molar value.

{"given.smiles": "Nc1ccc(C(=O)N[C@@H](CCP(=O)(O)O[C@@H](CCC(=O)O)C(=O)O)C(=O)O)cc1", "pIC50": "< 3.70"}
{"given.smiles": "CN(Cc1cnc2nc(N)nc(N)c2n1)c1ccc(C(=O)N[C@@H](CCP(=O)(O)O[C@@H](CCC(=O)O)C(=O)O)C(=O)O)cc1", "pIC50": "< 3.70"}

* * *

Below, each of the molecules is paired with its reported IC50 value.
- subject.of.test: UniProtKB Q05932
- Sequence (Q05932 whole entry): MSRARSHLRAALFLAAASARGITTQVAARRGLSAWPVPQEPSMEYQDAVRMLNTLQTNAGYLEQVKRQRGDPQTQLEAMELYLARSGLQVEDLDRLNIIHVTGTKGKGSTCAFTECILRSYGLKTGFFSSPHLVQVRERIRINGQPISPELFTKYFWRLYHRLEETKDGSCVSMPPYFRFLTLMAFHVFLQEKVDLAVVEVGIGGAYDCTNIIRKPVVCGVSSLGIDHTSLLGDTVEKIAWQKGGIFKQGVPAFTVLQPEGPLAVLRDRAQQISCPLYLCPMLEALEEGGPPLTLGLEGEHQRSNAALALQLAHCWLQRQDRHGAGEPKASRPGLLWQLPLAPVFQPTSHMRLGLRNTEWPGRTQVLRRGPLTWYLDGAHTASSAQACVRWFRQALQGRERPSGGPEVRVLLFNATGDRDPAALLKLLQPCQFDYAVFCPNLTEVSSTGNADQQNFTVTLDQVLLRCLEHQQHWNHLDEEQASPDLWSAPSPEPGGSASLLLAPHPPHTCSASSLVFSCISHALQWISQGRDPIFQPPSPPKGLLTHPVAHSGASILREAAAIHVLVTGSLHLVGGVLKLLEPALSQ
- method.summary: Compound was evaluated for its ability to inhibit Folyl-poly-gamma-glutamyl synthetase

{"molecule": "Nc1ccc(C(=O)N[C@@H](CCP(=O)(O)O[C@@H](CCC(=O)O)C(=O)O)C(=O)O)cc1", "IC50": "8600 nM"}
{"molecule": "CN(Cc1cnc2nc(N)nc(N)c2n1)c1ccc(C(=O)NC(CCP(=O)(O)OC(CCC(=O)O)C(=O)O)C(=O)O)cc1 (centres undefined)", "IC50": "20 nM"}
{"molecule": "CNc1ccc(C(=O)N[C@@H](CCP(=O)(O)O[C@@H](CCC(=O)O)C(=O)O)C(=O)O)cc1", "IC50": "5700 nM"}
{"molecule": "CN(Cc1cnc2nc(N)nc(N)c2n1)c1ccc(C(=O)N[C@@H](CCP(=O)(O)O[C@@H](CCC(=O)O)C(=O)O)C(=O)O)cc1", "IC50": "120 nM"}

All figures here come from ChEMBL document CHEMBL1134868.
